experiment: M. tuberculosis growth inhibition, HTS (AID 449762);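 note: bacterial growth assessed after seven days of incubation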; details: M. tuberculosis H37Rv growth inhibition, 7H9 media; at 25 µM; stronger effect = higher value
The campaign covered roughly 330,000 compounds. About 1,900 (0.58%) were called active. Inconclusive results (about 4%) are left out. A selection follows. Potency and affinity values are given separately.
This section presents molecules with their documented inhibition values.
# unit: % | format: bare number

Some solved entries appear below for comparison.
CN(C)c1ccc(/C=C/C(=O)c2ccccc2)cc1[N+](=O)[O-] | 16.9
COc1cc2nc(Nc3ccc(F)cc3)nc(N)c2cc1OC | 23.2
O=C(NCCC1=CCCCC1)NC1CCCCC1 | 7.21
O=C(C1=COCCO1)N(Cc1nnc(-c2ccccc2Cl)o1)C1CC1 | 1.25
C=CCn1c(NCc2ccc3c(c2)OCO3)nc2ccccc21 | 1.97

Attention now shifts to the item below.
Requested read-out: inhibition. Entry: `c1ccc(-c2nccc(-c3ccc(-n4cnc5ccccc54)cc3)n2)cc1`
16

Values from PubChem BioAssay AID449762
